Biological target: human mineralocorticoid receptor (MR) (Homo sapiens, UniProt P08235)
Sequence (P08235 whole entry): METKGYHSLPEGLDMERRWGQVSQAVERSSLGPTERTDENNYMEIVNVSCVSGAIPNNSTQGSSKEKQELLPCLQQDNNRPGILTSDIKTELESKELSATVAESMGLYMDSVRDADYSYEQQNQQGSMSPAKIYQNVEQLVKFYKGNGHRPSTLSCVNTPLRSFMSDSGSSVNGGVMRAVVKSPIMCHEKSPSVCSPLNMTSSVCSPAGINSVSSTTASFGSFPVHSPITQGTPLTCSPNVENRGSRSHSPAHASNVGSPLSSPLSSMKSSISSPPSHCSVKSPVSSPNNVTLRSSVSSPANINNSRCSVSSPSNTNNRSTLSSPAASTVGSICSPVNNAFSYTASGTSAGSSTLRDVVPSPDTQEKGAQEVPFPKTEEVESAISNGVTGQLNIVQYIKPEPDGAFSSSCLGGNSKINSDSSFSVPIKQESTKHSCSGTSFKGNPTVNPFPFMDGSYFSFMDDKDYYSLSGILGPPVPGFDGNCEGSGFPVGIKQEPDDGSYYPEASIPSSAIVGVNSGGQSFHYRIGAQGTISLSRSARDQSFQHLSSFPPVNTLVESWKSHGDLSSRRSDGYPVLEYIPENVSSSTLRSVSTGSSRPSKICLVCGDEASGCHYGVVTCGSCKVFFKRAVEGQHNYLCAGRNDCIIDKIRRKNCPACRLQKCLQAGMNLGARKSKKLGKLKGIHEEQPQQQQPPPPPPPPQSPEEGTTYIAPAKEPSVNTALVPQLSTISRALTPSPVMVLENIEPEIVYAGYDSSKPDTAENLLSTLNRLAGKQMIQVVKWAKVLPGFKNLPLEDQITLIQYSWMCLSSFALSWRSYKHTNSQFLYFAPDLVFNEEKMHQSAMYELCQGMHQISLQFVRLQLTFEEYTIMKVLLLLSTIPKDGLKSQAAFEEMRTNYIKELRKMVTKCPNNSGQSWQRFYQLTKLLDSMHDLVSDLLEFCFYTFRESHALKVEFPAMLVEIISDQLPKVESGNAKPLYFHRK
Test: Nuclear hormone receptor functional modulation assay (GRE-luciferase reporter, HEK293), MR
Conditions: agonist mode; mean of n=4 or 5; read-out: EC50 in activating transcription, MR
Experimental: The solvents, reagents, and ligands employed in the functional assay are readily available from commercial sources, or can be prepared by one of ordinary skill in the art. Human embryonic kidney HEK293 cells are transfected with steroid hormone receptor and reporter gene plasmids using Fugene™ transfection reagent. […] After 24-hours incubation with test compounds, cells are lysed and luciferase activity is determined using standard techniques. […]
test_readout: EC50

compound="CC/C(=C1\\c2ccc(F)cc2OCc2ncccc21)c1cccc(NS(C)(=O)=O)c1 [Compound (I)]" measured_value="> 10 µM"

* * *

Target: human progesterone receptor (PR) (Homo sapiens)
Sequence (P06401 1-933): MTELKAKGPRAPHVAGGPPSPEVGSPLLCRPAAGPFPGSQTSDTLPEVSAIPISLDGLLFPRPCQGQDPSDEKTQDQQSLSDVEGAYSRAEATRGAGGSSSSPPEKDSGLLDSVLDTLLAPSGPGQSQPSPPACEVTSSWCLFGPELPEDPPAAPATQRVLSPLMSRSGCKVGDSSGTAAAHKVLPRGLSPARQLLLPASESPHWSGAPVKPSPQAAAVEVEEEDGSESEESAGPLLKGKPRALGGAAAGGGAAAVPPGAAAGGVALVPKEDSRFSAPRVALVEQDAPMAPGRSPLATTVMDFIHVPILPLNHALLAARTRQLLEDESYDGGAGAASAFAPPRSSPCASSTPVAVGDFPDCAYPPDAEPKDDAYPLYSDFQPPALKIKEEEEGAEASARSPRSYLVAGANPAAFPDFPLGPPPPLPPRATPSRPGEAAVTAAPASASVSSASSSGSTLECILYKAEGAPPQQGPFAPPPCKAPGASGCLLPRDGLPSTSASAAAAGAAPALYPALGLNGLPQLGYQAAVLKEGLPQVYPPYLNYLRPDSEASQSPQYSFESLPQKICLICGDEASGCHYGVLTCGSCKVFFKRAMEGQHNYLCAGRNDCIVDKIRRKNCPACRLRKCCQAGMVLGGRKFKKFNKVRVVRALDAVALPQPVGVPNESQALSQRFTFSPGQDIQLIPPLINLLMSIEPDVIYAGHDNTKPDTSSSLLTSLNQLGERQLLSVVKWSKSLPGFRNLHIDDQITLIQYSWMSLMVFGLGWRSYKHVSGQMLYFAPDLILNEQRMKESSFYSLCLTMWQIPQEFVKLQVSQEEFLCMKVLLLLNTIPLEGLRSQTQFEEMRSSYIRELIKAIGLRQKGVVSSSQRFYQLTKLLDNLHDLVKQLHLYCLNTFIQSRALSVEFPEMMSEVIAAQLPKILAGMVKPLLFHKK
Experiment: Nuclear hormone receptor functional modulation assay (GRE-luciferase reporter, HEK293), PR
Details: agonist mode; mean of n=4 or 5; read-out: EC50 in activating transcription, PR
Experimental: The solvents, reagents, and ligands employed in the functional assay are readily available from commercial sources, or can be prepared by one of ordinary skill in the art. Human embryonic kidney HEK293 cells are transfected with steroid hormone receptor and reporter gene plasmids using Fugene™ transfection reagent. […] After 24-hours incubation with test compounds, cells are lysed and luciferase activity is determined using standard techniques. […]
pEC50: −log10 of the molar value.
test_readout: pEC50

line_notation=CC/C(=C1\c2ccc(F)cc2OCc2ncccc21)c1cccc(NS(C)(=O)=O)c1 measured_target="human progesterone receptor (PR) (Homo sapiens)" measured_value="< 5.00"
